The reported measurements were obtained from patent US11046699B2.

Biological target: GCN2 (Homo sapiens, UniProt Q9P2K8)
Sequence (Q9P2K8 whole entry): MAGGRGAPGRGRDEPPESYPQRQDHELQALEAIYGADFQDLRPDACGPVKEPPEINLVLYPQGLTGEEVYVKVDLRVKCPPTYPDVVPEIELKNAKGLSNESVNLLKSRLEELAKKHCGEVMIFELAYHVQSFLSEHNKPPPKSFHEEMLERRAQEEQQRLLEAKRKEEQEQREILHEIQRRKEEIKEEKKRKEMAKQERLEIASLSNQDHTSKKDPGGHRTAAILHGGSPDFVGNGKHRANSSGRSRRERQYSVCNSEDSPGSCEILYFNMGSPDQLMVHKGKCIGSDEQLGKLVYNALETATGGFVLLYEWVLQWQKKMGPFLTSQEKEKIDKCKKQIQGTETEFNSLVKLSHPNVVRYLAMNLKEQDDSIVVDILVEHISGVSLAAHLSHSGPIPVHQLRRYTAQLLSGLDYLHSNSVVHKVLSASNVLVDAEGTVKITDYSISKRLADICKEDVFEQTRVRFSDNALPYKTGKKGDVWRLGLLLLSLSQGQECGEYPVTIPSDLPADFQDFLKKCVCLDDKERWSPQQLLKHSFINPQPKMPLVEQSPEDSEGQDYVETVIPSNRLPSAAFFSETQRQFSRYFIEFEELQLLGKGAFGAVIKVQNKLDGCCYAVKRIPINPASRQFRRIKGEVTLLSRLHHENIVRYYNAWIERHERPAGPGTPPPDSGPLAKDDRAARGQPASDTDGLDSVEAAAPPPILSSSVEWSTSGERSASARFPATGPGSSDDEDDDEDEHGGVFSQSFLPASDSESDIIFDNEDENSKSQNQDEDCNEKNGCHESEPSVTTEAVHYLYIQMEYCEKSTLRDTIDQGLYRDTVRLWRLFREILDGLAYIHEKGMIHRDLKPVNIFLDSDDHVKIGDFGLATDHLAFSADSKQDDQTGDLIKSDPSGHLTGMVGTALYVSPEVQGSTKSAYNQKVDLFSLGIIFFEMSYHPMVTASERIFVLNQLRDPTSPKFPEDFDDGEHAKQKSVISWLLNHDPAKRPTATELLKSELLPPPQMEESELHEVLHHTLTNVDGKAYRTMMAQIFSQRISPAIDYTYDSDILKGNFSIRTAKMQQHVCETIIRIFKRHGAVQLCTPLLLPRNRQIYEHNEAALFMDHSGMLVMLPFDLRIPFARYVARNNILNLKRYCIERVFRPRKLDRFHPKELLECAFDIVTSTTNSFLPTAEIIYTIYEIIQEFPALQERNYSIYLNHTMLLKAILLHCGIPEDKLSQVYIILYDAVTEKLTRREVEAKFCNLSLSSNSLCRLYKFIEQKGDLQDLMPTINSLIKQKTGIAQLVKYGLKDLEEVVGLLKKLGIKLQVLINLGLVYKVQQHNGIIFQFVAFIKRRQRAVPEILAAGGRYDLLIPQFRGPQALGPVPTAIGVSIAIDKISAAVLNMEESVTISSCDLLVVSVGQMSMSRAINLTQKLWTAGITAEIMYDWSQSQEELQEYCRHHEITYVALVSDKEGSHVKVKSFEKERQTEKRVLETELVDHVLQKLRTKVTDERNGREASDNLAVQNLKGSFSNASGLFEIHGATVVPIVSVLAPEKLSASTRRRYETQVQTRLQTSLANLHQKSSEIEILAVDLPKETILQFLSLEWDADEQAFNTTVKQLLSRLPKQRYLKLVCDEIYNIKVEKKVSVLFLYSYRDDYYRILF
Experiment: GCN2 enzymatic endpoint assay: phosphorylation of GFP-eIF2α measured by TR-FRET (Lanthascreen)
Type: biochemical
Details: tested as described in Example 77; compound and/or hydrochloride, dihydrochloride or trifluoroacetic acid salt; read-out: IC 50 Activity
Protocol: The Enzymatic assay was run as an endpoint assay to quantify the activity of the serine/threonine GCN2 kinase by way of measuring phosphorylation of its natural substrate, eiF2α. The enzymatic reaction was initiated by incubating with 2 μM ATP and 80 nM of GFP labeled eiF2a substrate at room temperature and then stopped after 90 minutes with EDTA. The amount of phosphorylated eIF2α is determined by TR-FRET (Lanthascreen). […]
metric: IC50

# annotated cases, reported IC50 shown
[[record]]
compound = "CC(O)C(=O)N1CCN(C(=O)[C@@H]2CC[C@@H](Nc3ncc4c(Br)nn(-c5ccc6ncccc6c5)c4n3)C2)CC1 (some centres unmarked)"
reported_result = "25 to 200 nM"

[[record]]
compound = "CNC(=O)[C@]1([C@H](C)C#N)CC[C@@H](Nc2ncc3c(Br)nn(-c4ccc(-c5nnc(C)s5)cc4)c3n2)C1"
reported_result = "25 to 200 nM"

[[record]]
compound = "CNC(=O)[C@]1(C)CC[C@@H](Nc2ncc3c(Br)nn(-c4ccc5ncncc5c4)c3n2)C1"
reported_result = "25 to 200 nM"


// returns reported IC50 for input CNC(=O)[C@]1(C)CC[C@@H](Nc2ncc3c(Br)nn(-c4ccc5ncn(CCN6C(=O)c7ccccc7C6=O)c(=O)c5c4)c3n2)C1
25 to 200 nM

// returns reported IC50 for input CNC(=O)[C@]1(C)CC[C@@H](Nc2ncc3c(Br)nn(-c4ccc(-c5ncco5)c([C@H]5CCNC5)c4)c3n2)C1
25 to 200 nM

// returns reported IC50 for input CNC(=O)[C@]1(C)CCC(Nc2ncc3c(Br)nn(-c4ccc(C(N)=O)c(Cl)c4)c3n2)C1 (some centres unmarked)
25 to 200 nM

// returns reported IC50 for input CNC(=O)C1(C)CC[C@@H](Nc2ncc3c(Br)nn(-c4cc(Cl)cc(C(N)=O)c4)c3n2)C1 (some centres unmarked)
< 25 nM

// returns reported IC50 for input CNC(=O)[C@]1(C)CC[C@@H](Nc2ncc3c(Br)nn(-c4ccc(-c5nnc(C)s5)c(F)c4)c3n2)C1
< 25 nM

* * *

target: GCN2 (Homo sapiens); assay: GCN2 enzymatic endpoint assay: phosphorylation of GFP-eIF2α measured by TR-FRET (Lanthascreen); assay type: biochemical; settings: tested as described in Example 77; compound and/or hydrochloride, dihydrochloride or trifluoroacetic acid salt; read-out: IC 50 Activity
compounds and their reported IC50

[[record]]
compound = "CNC(=O)[C@]1(C)CC[C@@H](Nc2ncc3c(Br)nn(-c4ccc(-c5nnc(C)o5)cc4)c3n2)C1"
metric = "IC50"
reported_result = "< 25 nM"

[[record]]
compound = "C[C@]1(C(=O)O)C[C@H](Nc2ncc3c(Br)nn(-c4ccc5ncccc5c4)c3n2)C1"
metric = "IC50"
reported_result = "200 to 500 nM"

[[record]]
compound = "COCCNC(=O)[C@@H]1CC[C@@H](Nc2ncc3c(Br)nn(-c4cc(C(F)F)c5ncccc5c4)c3n2)C1"
metric = "IC50"
reported_result = "25 to 200 nM"


// returns reported IC50 for input CNC(=O)[C@@H]1CC[C@@H](Nc2ncc3c(Br)nn(-c4ccc5nc(C)c(F)cc5c4)c3n2)C1
25 to 200 nM
